Experiment: Anti-inflammatory activity in Sprague-Dawley rat primary mixed glial cells assessed as inhibition of LPS-induced NO production at 50 uM pretreated for 2 hrs followed by LPS addition measured after 48 hrs by Griess assay (reference value: 100%)
Type: functional, Primary glial cell
Parameters: scale not given: the % may be the effect or the level left
property: Activity (%)
Just the number please, in %, no unit attached.

Some solved cases for reference:
* CCOC(=O)/C=C/c1cccc(/C=C/c2cc(OC)c(OC)c(OC)c2)c1 | 75.6
* Oc1cc(-c2cc3ccccc3o2)c(Br)c(O)c1O | 24.92
* CCOC(=O)/C=C/c1cccc(/C=C/c2cc(O)c(O)c(O)c2)c1 | 26.02
* COc1cccc(/C=C/c2ccc3c(c2)OCO3)c1O | 101

Data request, read-out Activity, for CCOC(=O)/C=C/c1cc(O)c(O)cc1-c1cc2cccc(O)c2o1 38.13

Look at this compound and give its reported Activity. COc1cc(/C=C/c2ccccc2O)c(Br)c(OC)c1OC 105.48

----------
Experiment: Anti-inflammatory activity in Sprague-Dawley rat primary mixed glial cells assessed as inhibition of LPS-induced NO production at 50 uM pretreated for 2 hrs followed by LPS addition measured after 48 hrs by Griess assay (reference value: 100%)
Format: functional, Primary glial cell
Set-up: scale not given: the % may be the effect or the level left
Quick reference for Activity among some molecules
State just the number; it will be interpreted in %.

* CCOC(=O)/C=C/c1ccc(OC)c(O)c1/C=C/c1ccc(OC)c(OC)c1 | 106.26

Data request, read-out Activity, for CCOC(=O)/C=C/c1cc(OC)c(OC)cc1/C=C/c1cc(OC)c(OC)c(OC)c1 123.48

Given the entry CCOC(=O)/C=C/c1cc(OC)c(OC)cc1/C=C/c1ccccc1O , report its measured Activity. 73.27

Query (molecule): COC(=O)/C=C/c1ccc(O)c2c1C=Cc1cc(O)c(O)cc1O2 ; field requested: Activity 99.63

Any idea what Activity was measured for O=C(O)/C=C/c1ccc(O)c2c1C=Cc1cc(O)c(O)cc1O2 ? 98.77

----------
pEC50 values for the compounds below.
Tested on: Cortical neurone
Test: Neuroprotective activity against fibril amyloid beta (25 to 35)-induced cell death in Sprague-Dawley rat 5 days old neonatal primary cortical neurons assessed as increase in cell viability pretreated for 2 hrs followed by 10 uM fibril amyloid beta (25 to 35) addition measured after 48 hrs by MTT assay
Format: functional, cell-based
As a rule, pEC50 stands for the negative log10 of the concentration, concentration in M.

• Oc1ccc(-c2cc3cc(Br)cc(O)c3o2)cc1O = 4.44

# context switch: different compound, same pEC50
Given the entry CCOC(=O)/C=C/c1ccc(/C=C/c2cc(O)c(O)c(O)c2)cc1 , report its measured pEC50. 4.39

----------
Each entry below lists one item and its recorded Activity value.
Test: Anti-inflammatory activity in Sprague-Dawley rat primary mixed glial cells assessed as inhibition of LPS-induced NO production at 50 uM pretreated for 2 hrs followed by LPS addition measured after 48 hrs by Griess assay (reference value: 100%)
Format: functional, Primary glial cell
Design: scale not given: the % may be the effect or the level left
Numeric answer only, unit % assumed.

Some entries whose results are on file:
• CCOC(=O)/C=C/c1cc(/C=C/c2ccc3c(c2)OCO3)c(O)c(OC)c1 = 139.87
• CCOC(=O)/C=C/c1cc2c(cc1/C=C/c1cc(OC)c(OC)c(OC)c1)OCO2 = 127.76
• CCOC(=O)/C=C/c1ccc(OC)c(O)c1/C=C/c1ccc2c(c1)OCO2 = 70.98
• CCOC(=O)/C=C/c1cc(O)c(O)cc1-c1cc2ccccc2o1 = 49.61

// query Activity value for entry COc1cc(Br)c(/C=C/c2cc(Br)cc(OC)c2O)cc1OC 94.57
